Each entry below carries its recorded pKi.
experimentalTarget: aggregated beta amyloid in AD tissue (Homo sapiens, UniProt P05067)
Sequence (P05067 672-711 limits assumed): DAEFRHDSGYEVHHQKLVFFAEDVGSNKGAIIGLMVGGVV
procedureDetails: Competitive radioligand binding to pathological aggregated beta amyloid in AD tissue (Assay 2), displacement of [^3H]-105
testParameters: Aβ-rich AD frontal cortex homogenate, [^3H]-105, Kd 11.0 nM
pKi: −log10 of the molar value.

>>> endpointresult("FCCOC[C@H]1CN(c2ncc(C#Cc3ccc(N4CCn5cnnc5C4)nc3)cn2)CCN1c1ncncn1 [Example 75]")
"≤ 5.92"
>>> endpointresult("FCCCOC[C@H]1CN(c2ncc(C#Cc3ccc(-c4cnco4)nc3)cn2)CCN1c1ncncn1 [Example 74]")
"≤ 5.92"
>>> endpointresult("COC[C@H]1CN(c2ncc(C#Cc3ccc(-n4cnnc4)nc3)cn2)CCN1c1cc(F)ncn1 [Example 45]")
"≤ 5.92"

Value lookup for pKi; key = COC[C@H]1CN(c2ccccn2)CCN1c1ncc(/C=C/c2ccc(-c3cnco3)nc2)cn1 [Example 26]
≤ 4.92

Value lookup for pKi; key = FCCOC[C@H]1CN(c2ncccn2)CCN1c1ncc(/C=C/c2ccc(-n3ccnc3)nc2)cn1 [Example 30]
≤ 4.92

Value lookup for pKi; key = Cn1cc(-c2ncc(C#Cc3cnc(N4CCN(c5ncccn5)[C@@H](COCCF)C4)nc3)cn2)cn1 [Example 51]
≤ 5.92
